Listing of recorded Pigweed, Palmer plant response rating by entry.
Tested on: palmer pigweed
Test: Test E preemergence
Assay type: in vivo, Amaranthus palmeri
Conditions: 16 g ai/ha, scale 0 to 100 (0 no effect, 100 complete control)
Reply with just the number.

compound.smiles	measured.quantity	data.value
N#Cc1cccc(Oc2ncc(Br)cn2)c1-n1cc(C(F)(F)F)cn1	Pigweed, Palmer plant response rating	35
N#Cc1cccc(Oc2ncc(Cl)cn2)c1-n1cc(C(F)(F)F)cn1	Pigweed, Palmer plant response rating	100
N#Cc1cccc(Oc2ncc(F)cn2)c1-n1cc(Cl)cn1	Pigweed, Palmer plant response rating	0

# ---- query molecule ----
Query: Item FC(F)(F)COc1cnn(-c2ccccc2Oc2ncc(Cl)cn2)c1 has what recorded Pigweed, Palmer plant response rating?
Response: 0

====

Tested on: pigweed
Test: Test A preemergence
Format: in vivo, Amaranthus retroflexus
Settings: 125 g ai/ha
Source text: […]
measured.quantity: Pigweed plant response rating (0 to 100 scale)
Just the number, please, no unit attached.

Answered cases to consult:
compound.smiles	data.value
COc1cnc(Oc2cccc(C#N)c2-n2cc(Br)cn2)nc1	100
N#Cc1cccc(Oc2ncc(Cl)cn2)c1-n1cc(-n2ccc(C(F)(F)F)n2)cn1	100
N#Cc1cccc(Oc2ncc(Cl)cn2)c1-n1cnc(C(F)(F)F)c1	100
Clc1cnc(Oc2cccc(-c3ccccc3)c2-n2cc(Br)cn2)nc1	0
Cc1ccc(Oc2ncc(Cl)cn2)c(-n2cc(Br)cn2)c1Br	0

Query: I am curious: what Pigweed plant response rating (0 to 100 scale) value has been reported for CNN=Cc1cccc(Oc2ncc(Cl)cn2)c1-n1cc(Cl)cn1 ?
Response: 0

Query: Please answer likewise for N#Cc1cc(F)cc(Oc2ncc(Br)cn2)c1-n1cc(Br)cn1
Response: 100

Query: Also O=Cc1cccc(Oc2ncc(F)cn2)c1-n1cc(C(F)(F)F)cn1 ?
Response: 100

Query: Could you do the same for C#Cc1cnn(-c2ccccc2Oc2ncc(Cl)cn2)c1 , please?
Response: 100

====

Entries and their Barnyardgrass plant response rating
System: barnyardgrass
Test: Test C preemergence
Type: in vivo, Echinochloa crus-galli
Settings: 125 g ai/ha, preemergence; scale 0 (no effect) to 100 (complete control)
Format: numeric value only, no unit, no commentary.

Would you please look over these solved cases?
compound.smiles	tested.system	Barnyardgrass plant response rating
FCc1cn(-c2c(F)cccc2Oc2ncc(Cl)cn2)nn1	barnyardgrass	100
N#Cc1cnn(-c2c(C#N)cccc2Oc2ncc(F)cn2)c1	barnyardgrass	100
N#Cc1cccc(Oc2ncc(F)cn2)c1-n1cc(Cl)cn1	barnyardgrass	100

Query: Recorded Barnyardgrass plant response rating for Cc1cnc(Oc2cccc(C#N)c2-n2cc(I)cn2)nc1 , please?
Response: 100

Query: Continue with N#Cc1cn(-c2c(Br)cccc2Oc2ncc(Cl)cn2)nn1
Response: 70

Query: Follow-up item: CCCOc1cnn(-c2c(C#N)cccc2Oc2ncc(Cl)cn2)c1
Response: 80

====

System: wheat, winter
Assay: Test C preemergence
Assay type: in vivo, Triticum aestivum
Conditions: Preemergence, 31 g ai/ha; scale 0 to 100, 0 no effect, 100 complete control
measured.quantity: Plant response rating, Wheat
# respond with the number and nothing more

compound.smiles	tested.system	data.value
N#Cc1cn(-c2c(Br)cccc2Oc2ncc(Cl)cn2)nn1	wheat, winter	0
FCc1cccc(Oc2ncc(F)cn2)c1-n1cc(C(F)(F)F)cn1	wheat, winter	0
N#Cc1cccc(Oc2ncc(F)cn2)c1-n1cc(I)cn1	wheat, winter	0

// below: Plant response rating, Wheat requested for another compound
Query: Checklist item: Plant response rating, Wheat tested on wheat, winter, entry N#Cc1cnn(-c2c(C#N)cccc2Oc2ncc(F)cn2)c1 , value?
Response: 30
